// provenance: patent US20160137639A1

Target: mouse RORγ (Mus musculus, UniProt P51450)
Construct: mouse, NM_011281.2 and from Ile251 to Lys516; expressed in transfected cells; host or cells: CHO cells (transient co-transfection with pG5-Luc reporter)
Sequence (P51450 251-516): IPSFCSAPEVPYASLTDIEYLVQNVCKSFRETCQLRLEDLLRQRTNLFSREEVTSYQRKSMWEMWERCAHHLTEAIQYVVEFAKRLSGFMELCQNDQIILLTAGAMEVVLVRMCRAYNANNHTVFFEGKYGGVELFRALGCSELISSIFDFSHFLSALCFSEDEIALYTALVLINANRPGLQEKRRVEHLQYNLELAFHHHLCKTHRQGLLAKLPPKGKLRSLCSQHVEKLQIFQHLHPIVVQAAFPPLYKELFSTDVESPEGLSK
Experiment: Luciferase reporter gene assay of inhibitory effect against RORγ transcriptional activity (GAL4-mRORγ plasmid in CHO cells)
Assay type: cell-based
Details: read-out: LUC EC50 (μM) mRORg
# EC50 per entry
readout name: EC50

[
  {
    "molecule": "Cc1ccc(NC(=O)C(C)C(CCO)c2nnc([C@H]3C[C@@H](CC(C)C)C3)n2C2CC2)c(C)c1 (single isomer, unassigned) [Example F-493]",
    "result": "< 3 µM"
  },
  {
    "molecule": "Cc1ccc(NC(=O)CCc2nnc(-c3ccc(O)cc3)n2C2CC2)c(C)c1",
    "result": "> 3 µM"
  },
  {
    "molecule": "Cc1ccc(NC(=O)CCc2nnc(CCC3(C)CCCCC3)n2C2CC2)c(C)c1",
    "result": "< 3 µM"
  },
  {
    "molecule": "Cc1ccc(NC(=O)[C@H]2C[C@H](O)C[C@@H]2c2nnc([C@H]3C[C@@H](CC(C)C)C3)n2C2CC2)c(C)c1 (racemic)",
    "result": "< 3 µM"
  },
  {
    "molecule": "CCn1c(CCC(=O)Nc2cccc(Cl)c2C)nnc1CCC1CCCCC1",
    "result": "< 3 µM"
  },
  {
    "molecule": "CCn1c(CCC(=O)Nc2ccc(C)cc2C)nnc1CCC(C)(C)C",
    "result": "< 3 µM"
  },
  {
    "molecule": "Cc1ccc(NC(=O)CC(Cc2ccccn2)c2nnc([C@H]3C[C@@H](CC(C)C)C3)n2C2CC2)c(C)c1 (mixture of isomers)",
    "result": "< 3 µM"
  },
  {
    "molecule": "Cc1c(Cl)cccc1NC(=O)CCc1nnc(C2CC(C)C2)n1C1CC1 (mixture of isomers)",
    "result": "< 3 µM"
  },
  {
    "molecule": "CC(=O)N[C@@H](CC(=O)Nc1ccc(C)cc1C)c1nnc(CCCC(C)(C)C)n1C1CC1",
    "result": "< 3 µM"
  },
  {
    "molecule": "CC(=O)N1C[C@H](C(=O)Nc2ccc(C)cc2C)[C@@H](c2nnc(CCCC(C)(C)C)n2CC(F)(F)F)C1 (racemic) [Example F-356]",
    "result": "< 3 µM"
  },
  {
    "molecule": "Cc1ccc(NC(=O)CCc2nnc([C@H]3C[C@@H](CCC(C)C)C3)n2C2CC2)c(C)c1",
    "result": "< 3 µM"
  },
  {
    "molecule": "Cc1ccc(NC(=O)[C@H]2C[C@@H](O)C[C@@H]2c2nnc([C@H]3C[C@@H](CC(C)C)C3)n2C2CC2)c(C)c1 [Example F-470]",
    "result": "< 3 µM"
  },
  {
    "molecule": "Cc1cc(CO)ccc1NC(=O)CCc1nnc(CCC(C)C)n1C1CC1",
    "result": "> 3 µM"
  },
  {
    "molecule": "Cc1ccc(C(N)=O)cc1NC(=O)CCc1nnc(CCC(C)C)n1C1CC1",
    "result": "> 3 µM"
  },
  {
    "molecule": "COc1cccc(C)c1NC(=O)CCc1nnc(CCC(C)C)n1C1CC1",
    "result": "> 3 µM"
  }
]

====

# EC50 per entry
target: human RORγ (Homo sapiens); construct: human, NM_005060.3 and from Ser253 to Lys518; expressed in transfected cells; host or cells: CHO cells (transient co-transfection with pG5-Luc reporter); assay: Luciferase reporter gene assay of inhibitory effect against RORγ transcriptional activity (GAL4-hRORγ plasmid in CHO cells); format: cell-based; details: read-out: LUC EC50 (μM) hRORg
Sequence (P51449 253-518): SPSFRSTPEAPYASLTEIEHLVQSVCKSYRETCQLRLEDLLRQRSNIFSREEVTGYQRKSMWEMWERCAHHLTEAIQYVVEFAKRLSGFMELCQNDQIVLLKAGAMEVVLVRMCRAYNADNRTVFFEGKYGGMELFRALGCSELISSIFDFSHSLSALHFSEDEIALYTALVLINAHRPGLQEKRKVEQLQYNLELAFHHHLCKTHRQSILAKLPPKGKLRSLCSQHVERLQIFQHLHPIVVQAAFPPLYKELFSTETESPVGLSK

[
  {
    "molecule": "Cc1ccc(NC(=O)C[C@H](CCC(=O)O)c2noc(-c3cc(C(F)(F)C(C)(C)C)on3)c2C2CC2)c(Cl)c1",
    "assay target": "human RORγ (Homo sapiens)",
    "EC50": "< 3 µM"
  },
  {
    "molecule": "CC(=O)N1C[C@@H](C(=O)Nc2ccc(C)cc2C)[C@H](c2nnc(CCCC(C)C)n2C2CC2)C1",
    "assay target": "human RORγ (Homo sapiens)",
    "EC50": "> 3 µM"
  },
  {
    "molecule": "Cc1ccc(NC(=O)C[C@@H](CCO)c2nnc(CCCC(C)(C)C)n2C2CC2)c(C)c1",
    "assay target": "human RORγ (Homo sapiens)",
    "EC50": "> 3 µM"
  },
  {
    "molecule": "Cc1ccc(NC(=O)C[C@H](CCC(=O)O)c2noc(-c3nc(C)c(CC(C)C)s3)c2C2CC2)c(Cl)c1",
    "assay target": "human RORγ (Homo sapiens)",
    "EC50": "< 3 µM"
  },
  {
    "molecule": "Cc1ccc(NC(=O)[C@H]2CCCN[C@@H]2c2nnc(CCCC(C)(C)C)n2C2CC2)c(C)c1",
    "assay target": "human RORγ (Homo sapiens)",
    "EC50": "< 3 µM"
  },
  {
    "molecule": "Cc1c(Cl)cccc1NC(=O)CCc1nnc(CNC(=O)C(C)C)n1C1CC1",
    "assay target": "human RORγ (Homo sapiens)",
    "EC50": "> 3 µM"
  },
  {
    "molecule": "COc1cc(C)ccc1CNC(=O)[C@H]1CN(C(C)=O)C[C@@H]1c1nnc(CCCC(C)C)n1C1CC1 (racemic)",
    "assay target": "human RORγ (Homo sapiens)",
    "EC50": "< 3 µM"
  },
  {
    "molecule": "Cc1ccc(NC(=O)C[C@H](CCC(=O)O)c2noc(-c3cc(CCC(C)C)on3)c2C2CC2)c(F)c1",
    "assay target": "human RORγ (Homo sapiens)",
    "EC50": "< 3 µM"
  },
  {
    "molecule": "CC(=O)N1C[C@H](C(=O)Nc2ccc(C)cc2C)[C@@H](c2nnc(CCCC(C)(C)C)n2C2CC2)C1 [Example F-432]",
    "assay target": "human RORγ (Homo sapiens)",
    "EC50": "< 3 µM"
  },
  {
    "molecule": "CC(=O)N(C)[C@@H](CC(=O)Nc1ccc(C)cc1C)c1nnc(CCCC(C)(C)C)n1C1CC1",
    "assay target": "human RORγ (Homo sapiens)",
    "EC50": "< 3 µM"
  },
  {
    "molecule": "Cc1ccc(NC(=O)CC(c2nnc([C@H]3C[C@@H](CC(C)C)C3)n2C2CC2)C2CNC2)c(C)c1 (mixture of isomers)",
    "assay target": "human RORγ (Homo sapiens)",
    "EC50": "> 3 µM"
  },
  {
    "molecule": "Cc1ccc(NC(=O)CCc2nnc(-c3ccc(O)cc3)n2C2CC2)c(C)c1",
    "assay target": "human RORγ (Homo sapiens)",
    "EC50": "> 3 µM"
  },
  {
    "molecule": "Cc1c(Cl)cccc1CNC(=O)CCc1nnc(CCC(C)C)n1C1CC1",
    "assay target": "human RORγ (Homo sapiens)",
    "EC50": "> 3 µM"
  },
  {
    "molecule": "Cc1ccc(NC(=O)[C@H]2CN(S(C)(=O)=O)C[C@@H]2c2nnc(CCCC(C)(C)C)n2C2CC2)c(C)c1 (racemic)",
    "assay target": "human RORγ (Homo sapiens)",
    "EC50": "< 3 µM"
  },
  {
    "molecule": "Cc1ccc(NC(=O)CC(Cc2ccccc2)c2nnc(CCCC(C)(C)C)n2C2CC2)c(C)c1 (racemic)",
    "assay target": "human RORγ (Homo sapiens)",
    "EC50": "< 3 µM"
  },
  {
    "molecule": "COc1cc(C(F)(F)F)ccc1CNC(=O)CCc1nnc(CCC(C)C)n1C1CC1",
    "assay target": "human RORγ (Homo sapiens)",
    "EC50": "< 3 µM"
  },
  {
    "molecule": "Cc1c(Cl)cccc1NC(=O)CCc1nnc(COC2CCCCC2)n1C1CC1",
    "assay target": "human RORγ (Homo sapiens)",
    "EC50": "< 3 µM"
  },
  {
    "molecule": "Cc1ccc(NC(=O)CCc2nnc(-c3ccc(C(C)C)cc3)n2C2CC2)c(C)c1",
    "assay target": "human RORγ (Homo sapiens)",
    "EC50": "< 3 µM"
  },
  {
    "molecule": "Cc1c(Cl)cccc1NC(=O)CCc1nnc(COCc2ccccc2)n1C1CC1",
    "assay target": "human RORγ (Homo sapiens)",
    "EC50": "> 3 µM"
  },
  {
    "molecule": "Cc1ccc(NC(=O)C[C@@H](CCO)c2nnc(CCCC(C)C)n2C2CC2)c(C)c1",
    "assay target": "human RORγ (Homo sapiens)",
    "EC50": "> 3 µM"
  },
  {
    "molecule": "CC(=O)N1C[C@@H](C(=O)Nc2ccc(C)cc2C)[C@H](c2nnc([C@H]3C[C@@H](CC(C)(C)C)C3)n2C2CC2)C1",
    "assay target": "human RORγ (Homo sapiens)",
    "EC50": "< 3 µM"
  },
  {
    "molecule": "Cc1ccc(NC(=O)CCc2nnc([C@H]3C[C@H](CC4CCCC4)C3)n2C2CC2)c(C)c1",
    "assay target": "human RORγ (Homo sapiens)",
    "EC50": "< 3 µM"
  },
  {
    "molecule": "CCOC(=O)C(CC(=O)Nc1cccc(Cl)c1C)c1nnc(CCC(C)C)n1C1CC1 (racemic)",
    "assay target": "human RORγ (Homo sapiens)",
    "EC50": "> 3 µM"
  },
  {
    "molecule": "CC(=O)N1C[C@H](C(=O)Nc2ccc(C)cc2C)[C@@H](c2nnc(CCCC(C)(C)C)n2C2CC2)C1 (racemic) [Example F-219]",
    "assay target": "human RORγ (Homo sapiens)",
    "EC50": "< 3 µM"
  },
  {
    "molecule": "CC(=O)N1C[C@H](C(=O)Nc2ccc(C)cc2C)[C@@H](c2nnc(-c3cc(CC(C)C)on3)n2C2CC2)C1",
    "assay target": "human RORγ (Homo sapiens)",
    "EC50": "< 3 µM"
  },
  {
    "molecule": "CCC1(CC)CC(c2nnc(CCC(=O)Nc3ccc(C)cc3C)n2C2CC2)C1",
    "assay target": "human RORγ (Homo sapiens)",
    "EC50": "< 3 µM"
  },
  {
    "molecule": "Cc1ccc(Br)cc1NC(=O)CCc1nnc(CCC(C)C)n1C1CC1",
    "assay target": "human RORγ (Homo sapiens)",
    "EC50": "> 3 µM"
  },
  {
    "molecule": "COc1ccccc1CNC(=O)CCc1nnc(CCC(C)C)n1C1CC1",
    "assay target": "human RORγ (Homo sapiens)",
    "EC50": "> 3 µM"
  },
  {
    "molecule": "CC(=O)N(CCc1nnc(CCC(=O)Nc2cccc(Cl)c2C)n1C1CC1)C(C)C",
    "assay target": "human RORγ (Homo sapiens)",
    "EC50": "> 3 µM"
  },
  {
    "molecule": "Cc1ccc(NC(=O)C(C)C(CCOCc2ccccc2)c2nnc([C@H]3C[C@@H](CC(C)C)C3)n2C2CC2)c(C)c1 (mixture of isomers) [Example F-488]",
    "assay target": "human RORγ (Homo sapiens)",
    "EC50": "> 3 µM"
  }
]
